# study system: CSNK2A1 (human)
# assay text: Free Choice Kinase Assay Projects, Flashplate
# applied conditions: compound 10.0 µM; ATP 0.1 µM
# label = Criterion met if residual activity < 90% else Criterion not met

Fc1ccc(-c2[nH]c(SCc3ccccc3)nc2-c2ccnc(Cl)c2)cc1: Criterion not met

# input Strictly below 90%: is that where residual activity of Fc1ccc(-c2[nH]c(SCc3cccc4ccccc34)nc2-c2ccncc2)cc1 sits?
# output Criterion met

# input Strictly below 90%: is that where residual activity of N#CCSc1nc(-c2ccncc2)c(-c2ccc(F)cc2)[nH]1 sits?
# output Criterion not met

# input Strictly below 90%: is that where residual activity of COc1ccc(C(=O)Nc2cc(-c3nc(SC)n(C)c3-c3ccc(F)cc3)ccn2)cc1 sits?
# output Criterion met

# input Strictly below 90%: is that where residual activity of Fc1ccc(-c2[nH]c(SCC3CCCCC3)nc2-c2ccncc2)cc1 sits?
# output Criterion met

# input Strictly below 90%: is that where residual activity of Fc1ccc(-c2[nH]c(SCc3ccccc3)nc2-c2ccncc2)cc1 sits?
# output Criterion not met

# input Strictly below 90%: is that where residual activity of Oc1cccc(CSc2nc(-c3ccncc3)c(-c3ccc(F)cc3)[nH]2)c1 sits?
# output Criterion not met

# input Strictly below 90%: is that where residual activity of On1c(CCc2ccccc2)nc(-c2ccncc2)c1-c1ccc(F)cc1 sits?
# output Criterion met

---

# study system: PTK2 (human) (UniProt Q05397)
# Sequence (Q05397 whole entry, looked up): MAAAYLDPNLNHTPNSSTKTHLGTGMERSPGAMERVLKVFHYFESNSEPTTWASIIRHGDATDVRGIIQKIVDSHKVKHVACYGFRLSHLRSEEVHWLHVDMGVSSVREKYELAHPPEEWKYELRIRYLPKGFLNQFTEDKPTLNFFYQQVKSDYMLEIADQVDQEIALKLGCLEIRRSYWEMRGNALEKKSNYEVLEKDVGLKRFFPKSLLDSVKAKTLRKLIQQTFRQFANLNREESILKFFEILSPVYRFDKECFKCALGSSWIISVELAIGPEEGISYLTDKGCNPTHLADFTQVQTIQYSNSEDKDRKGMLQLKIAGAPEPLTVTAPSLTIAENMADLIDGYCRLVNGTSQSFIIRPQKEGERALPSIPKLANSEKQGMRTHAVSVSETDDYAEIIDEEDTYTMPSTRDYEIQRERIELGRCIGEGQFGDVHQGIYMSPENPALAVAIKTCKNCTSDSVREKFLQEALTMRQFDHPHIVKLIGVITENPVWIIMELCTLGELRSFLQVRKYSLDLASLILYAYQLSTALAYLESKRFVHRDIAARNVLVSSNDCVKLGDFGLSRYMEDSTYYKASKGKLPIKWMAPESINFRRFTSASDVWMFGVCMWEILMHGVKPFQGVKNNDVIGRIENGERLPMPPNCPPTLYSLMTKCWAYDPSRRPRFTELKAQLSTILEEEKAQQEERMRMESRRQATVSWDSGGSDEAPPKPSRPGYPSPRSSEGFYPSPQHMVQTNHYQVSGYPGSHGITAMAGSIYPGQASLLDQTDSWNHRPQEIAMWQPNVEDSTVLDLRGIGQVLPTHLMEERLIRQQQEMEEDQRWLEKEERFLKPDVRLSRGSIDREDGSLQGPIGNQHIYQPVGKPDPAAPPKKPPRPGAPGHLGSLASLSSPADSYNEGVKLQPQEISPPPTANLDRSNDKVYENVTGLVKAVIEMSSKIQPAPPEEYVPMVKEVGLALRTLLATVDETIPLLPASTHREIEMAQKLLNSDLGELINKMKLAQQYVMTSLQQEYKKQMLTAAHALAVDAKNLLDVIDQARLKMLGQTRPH
# assay text: Free Choice Kinase Assay Projects, Flashplate
# applied conditions: compound 10.0 µM; ATP 1 µM
Some compounds, each annotated with its measured residual activity.
Your answer is read as %, so omit the unit and give the number.

Some compounds with known residual activity results, for comparison:
Fc1ccc(-c2[nH]c(SCc3ccccc3)nc2-c2ccncc2)cc1: 86
Fc1ccc(-c2[nH]c(SCCCc3ccccc3)nc2-c2ccncc2)cc1: 99
CSc1nc(-c2ccnc(NC(=O)C3CCCC3)c2)c(-c2ccc(F)cc2)n1C: 80

# input Fill in reported residual activity for this entry: Fc1ccc(-c2[nH]c(CCc3ccccc3)nc2-c2ccncc2)cc1
# output 99

# input Fill in reported residual activity for this entry: Fc1ccc(-c2[nH]c(SCc3cccc4ccccc34)nc2-c2ccncc2)cc1
# output 124

# input Fill in reported residual activity for this entry: CSc1nc(-c2ccnc(NC(C)=O)c2)c(-c2ccc(F)cc2)n1C
# output 71

# input Fill in reported residual activity for this entry: Oc1ccccc1CSc1nc(-c2ccncc2)c(-c2ccc(F)cc2)[nH]1
# output 128

# input Fill in reported residual activity for this entry: Fc1ccc(-c2[nH]c(SCC3CCCCC3)nc2-c2ccncc2)cc1
# output 106

# input Fill in reported residual activity for this entry: CC(Nc1cc(-c2nc(SCc3ccccc3)[nH]c2-c2ccc(F)cc2)ccn1)c1ccccc1 (configuration not stated)
# output 82

# input Fill in reported residual activity for this entry: Oc1ccc(CSc2nc(-c3ccncc3)c(-c3ccc(F)cc3)[nH]2)cc1
# output 99

# input Fill in reported residual activity for this entry: COc1ccc(C(=O)Nc2cc(-c3nc(SC)n(C)c3-c3ccc(F)cc3)ccn2)cc1
# output 131

# input Fill in reported residual activity for this entry: N#CCSc1nc(-c2ccncc2)c(-c2ccc(F)cc2)[nH]1
# output 71

# input Fill in reported residual activity for this entry: On1c(CCc2ccccc2)nc(-c2ccncc2)c1-c1ccc(F)cc1
# output 87

# input Fill in reported residual activity for this entry: Oc1cccc(CSc2nc(-c3ccncc3)c(-c3ccc(F)cc3)[nH]2)c1
# output 88

# input Fill in reported residual activity for this entry: Fc1ccc(-c2[nH]c(SCc3ccccc3)nc2-c2ccnc(F)c2)cc1
# output 90

# input Fill in reported residual activity for this entry: Fc1ccc(-c2[nH]c(SCc3ccccc3)nc2-c2ccnc(Cl)c2)cc1
# output 120

# input Fill in reported residual activity for this entry: Fc1ccc(-c2[nH]c(SCCc3ccccc3)nc2-c2ccncc2)cc1
# output 95
